# Tested on: M4 muscarinic receptor (Homo sapiens, UniProt P08173)
# Sequence (P08173 whole entry): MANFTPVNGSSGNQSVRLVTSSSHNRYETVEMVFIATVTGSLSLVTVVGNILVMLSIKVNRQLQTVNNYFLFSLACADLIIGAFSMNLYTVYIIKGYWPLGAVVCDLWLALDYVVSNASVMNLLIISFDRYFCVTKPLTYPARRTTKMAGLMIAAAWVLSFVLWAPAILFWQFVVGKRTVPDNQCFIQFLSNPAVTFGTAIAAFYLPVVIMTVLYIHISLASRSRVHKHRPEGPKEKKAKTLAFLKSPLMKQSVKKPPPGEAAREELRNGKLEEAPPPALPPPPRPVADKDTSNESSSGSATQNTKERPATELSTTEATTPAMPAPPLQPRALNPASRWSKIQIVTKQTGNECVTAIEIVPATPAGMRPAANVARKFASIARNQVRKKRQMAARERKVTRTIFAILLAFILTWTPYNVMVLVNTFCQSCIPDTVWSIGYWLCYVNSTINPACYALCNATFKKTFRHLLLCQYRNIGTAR
# Assay summary: [3H]NMS competition binding, M4 CHO membranes
# Design: host or cells: CHO cells, stably transfected
# Study conditions: high-affinity fraction of binding to M4; read-out: high affinity binding
Measurement label: Ki

>  <Compound>
Cc1ccc(CN2CC=CCC2)s1.Cl

>  <Tested on>
M4 muscarinic receptor (Homo sapiens, UniProt P08173)

>  <Ki>
~30 nM

$$$$

Below: the item to evaluate.
QUERY: What does the record list as Ki for Cc1ccc(C[N+]2(C)CC=CCC2)s1.[I-] (centres unmarked) ?
RESULT: ~30 nM

====

# Tested on: M5 muscarinic receptor (Homo sapiens)
# Assay summary: [3H]NMS competition binding, M5 CHO membranes
# Design: host or cells: CHO cells, stably transfected
# Study conditions: Inhibition constants (Ki) as negative logarithms, M5, competition with 1 nM [3H]NMS
Measurement label: pKi
// pKi here means minus log10 of the molar concentration (mol/L)

QUERY: What does the record list as pKi for C[N+]1(Cc2ccc(Cl)s2)CC=CCC1.[I-] (stereo not shown) [Compound 7D] ?
RESULT: 5.77

====

# Tested on: M4 muscarinic receptor (Homo sapiens, UniProt P08173)
# Assay summary: inhibition of forskolin-stimulated cAMP, M4 CHO cells (M4Gi)
# Type: cell-based
# Set-up: host or cells: CHO cells, stably transfected
Measurement label: Kd (µM)
The figure you give is taken to be in µM; do not add the unit.

>  <Molecule>
O=C1CCCN1CC#CCN1CCCC1 [oxotremorine, reference compound]

>  <Units label>
µM

>  <Numeric result>
0.0316

$$$$

Below: the item to evaluate.
QUERY: What does the record list as Kd for C[N+]1(Cc2ccc(Cl)s2)CC=CCC1.[I-] (centres unmarked) ?
RESULT: 6.31

====

# Tested on: M5 muscarinic receptor (Homo sapiens, UniProt P08912)
# Sequence (P08912 whole entry): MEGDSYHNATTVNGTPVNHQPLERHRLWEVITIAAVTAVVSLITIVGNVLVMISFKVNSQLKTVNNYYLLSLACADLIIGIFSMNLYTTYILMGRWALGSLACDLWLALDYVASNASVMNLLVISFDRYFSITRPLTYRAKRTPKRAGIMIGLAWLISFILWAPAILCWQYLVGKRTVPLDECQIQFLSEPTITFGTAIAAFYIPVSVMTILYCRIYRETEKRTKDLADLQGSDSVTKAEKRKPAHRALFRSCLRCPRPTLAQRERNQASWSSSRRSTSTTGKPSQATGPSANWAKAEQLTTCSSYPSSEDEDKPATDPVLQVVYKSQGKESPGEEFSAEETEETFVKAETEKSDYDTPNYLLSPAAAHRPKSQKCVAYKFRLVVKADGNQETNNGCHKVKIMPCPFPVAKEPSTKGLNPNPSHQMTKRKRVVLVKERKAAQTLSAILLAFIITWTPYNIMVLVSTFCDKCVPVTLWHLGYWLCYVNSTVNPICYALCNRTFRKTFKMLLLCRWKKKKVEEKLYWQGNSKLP
# Assay summary: accumulation of IPX, M5 CHO cells (M5Gq)
# Type: cell-based
# Parameters: host or cells: CHO cells, stably transfected
# Study conditions: M5 (↑IPX), preferential response, Table 7; operational efficacy
Measurement label: τ
Give the figure by itself; no unit, no explanation.

>  <Compound>
Brc1ccc(CN2CC=CCC2)s1.Cl [Compound 6C]

>  <τ>
0.02

$$$$
>  <Compound>
C[N+]1(Cc2ccc(Cl)s2)CC=CCC1.[I-] (stereo not drawn) [Compound 7D]

>  <τ>
0.14

$$$$

Below: the item to evaluate.
QUERY: What does the record list as τ for O=C1CCCN1CC#CCN1CCCC1 [oxotremorine, reference compound] ?
RESULT: 2.60

====

Here the recorded Kd is given for each entry.
# Tested on: M1 muscarinic receptor (Homo sapiens, UniProt P11229)
# Sequence (P11229 whole entry): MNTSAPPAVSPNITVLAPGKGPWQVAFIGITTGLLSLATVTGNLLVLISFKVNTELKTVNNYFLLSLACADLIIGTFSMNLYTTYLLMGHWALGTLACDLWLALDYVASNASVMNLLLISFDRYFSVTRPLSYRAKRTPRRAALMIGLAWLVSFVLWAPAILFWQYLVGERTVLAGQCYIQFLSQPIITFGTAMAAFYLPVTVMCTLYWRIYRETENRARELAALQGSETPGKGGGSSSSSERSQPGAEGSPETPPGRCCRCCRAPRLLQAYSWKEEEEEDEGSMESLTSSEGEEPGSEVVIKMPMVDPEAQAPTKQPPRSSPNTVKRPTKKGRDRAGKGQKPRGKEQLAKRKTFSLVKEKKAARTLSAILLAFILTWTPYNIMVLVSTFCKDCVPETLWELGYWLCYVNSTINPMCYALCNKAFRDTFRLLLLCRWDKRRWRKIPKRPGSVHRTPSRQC
# Assay summary: accumulation of inositol phosphates IPX, M1 CHO cells (M1Gq)
# Format: cell-based
# Design: host or cells: CHO cells, stably transfected
# Study conditions: M1 (↑IPX), preferential response, Table 7; operational model; read-out: pKA (converted)
The figure you give is taken to be in µM; do not add the unit.

>  <Molecule>
C1=CCN(Cc2cccs2)CC1.Cl

>  <Kd (µM)>
7.94

$$$$
>  <Molecule>
C[N+]1(Cc2ccc(Cl)s2)CC=CCC1.[I-] (stereo not drawn)

>  <Kd (µM)>
3.98

$$$$
>  <Molecule>
Cc1ccc(CN2CC=CCC2)s1.Cl

>  <Kd (µM)>
15.8

$$$$
>  <Molecule>
Brc1ccc(CN2CC=CCC2)s1.Cl

>  <Kd (µM)>
3.98

$$$$
>  <Molecule>
Cc1ccc(C[N+]2(C)CC=CCC2)s1.[I-] (stereo not drawn)

>  <Kd (µM)>
5.01

$$$$

QUERY: What does the record list as Kd for C[N+]1(Cc2ccc(Br)s2)CC=CCC1.[I-] (stereo not drawn) ?
RESULT: 2.51

Entry source: patent US11591323B2
